B1: LCOR (parent)
chain: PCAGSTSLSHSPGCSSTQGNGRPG

- Variants of: B1
- measurementDescription: protein stability index of a GFP-peptide fusion (GPS, HEK-293T) (PSI 1-6); higher = more stable;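 also: lentivirally expressed fusions sorted by FACS into six bins by GFP to DsRed ratio, PSI derived from sequencing read proportions per bin multiplied by bin number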
- testSettings: c terminus: a fixed tail appended
Answer each item with its documented protein stability index.
One number for each entry.

Consider the worked cases shown below.
* P12H | 3.9
* T6V | 3.9
* P1Y | 2.96
* N20L | 2.91
* A3I | 4.1

List reported protein stability index for each of these variants:
1. T17A
2. A3T
3. P23M
4. Q18D

Result:
[3.08, 3.06, 2.98, 2.98]
